test system: NCI-H727; experiment: relative viability (nuclei count vs DMSO), 5 days (fraction); higher = more cells survive; conditions: first compound 0.005 µM
experimental-readout: relative viability
API note: the answer field is a bare number with no unit suffix.

Q: Write down relative viability measured for item COc1cc2nccc(Oc3ccc(NC(=O)Nc4cc(C)on4)c(Cl)c3)c2cc1OC [Tivozanib] + COc1cccc2cc(-c3nc([C@H]4CC[C@H](C(=O)O)CC4)n4ncnc(N)c34)[nH]c12 [OSI-027] (partner 0.5 µM)
A: 0.501

Q: Write down relative viability measured for item COc1cc2nccc(Oc3ccc(NC(=O)Nc4cc(C)on4)c(Cl)c3)c2cc1OC [Tivozanib] + Cc1nc(NC(=O)N2CCC[C@H]2C(N)=O)sc1-c1ccnc(C(C)(C)C(F)(F)F)c1 [Alpelisib] (partner 2 µM)
A: 0.505

Q: Write down relative viability measured for item Nc1ccn([C@@H]2O[C@H](CO)[C@@H](O)[C@@H]2O)c(=O)n1 [Cytarabine] + C[C@]1(O)C[C@@H](c2nc(-c3ccc4ccc(-c5ccccc5)nc4c3)c3c(N)nccn32)C1 [Linsitinib] (partner 1 µM)
A: 0.251

Q: Write down relative viability measured for item COc1cc2nccc(Oc3ccc(NC(=O)Nc4cc(C)on4)c(Cl)c3)c2cc1OC [Tivozanib] + Cc1cc(Nc2cc(N3CCN(C)CC3)nc(Sc3ccc(NC(=O)C4CC4)cc3)n2)n[nH]1 [Tozasertib] (partner 0.1 µM)
A: 0.533

---

Record form. Attribute: relative viability. Fill in for each entry.
system: IA-LM; assay: relative viability (nuclei count vs DMSO), 5 days (fraction); higher = more cells survive; conditions: first compound 0.8 µM

Q: Write down relative viability measured for item O=c1[nH]c2ccccc2n1C1CCN(CCCC(c2ccc(F)cc2)c2ccc(F)cc2)CC1 [Pimozide] + CC1(C)CCC(c2ccc(Cl)cc2)=C(CN2CCN(c3ccc(C(=O)NS(=O)(=O)c4ccc(N[C@H](CCN5CCOCC5)CSc5ccccc5)c(S(=O)(=O)C(F)(F)F)c4)cc3)CC2)C1 [Navitoclax] (partner 0.5 µM)
A: 0.923

Q: Write down relative viability measured for item Cc1cnc(-c2cnc(NCCNc3ccc(C#N)cn3)nc2-c2ccc(Cl)cc2Cl)[nH]1 + CS(=O)(=O)CCNCc1ccc(-c2ccc3ncnc(Nc4ccc(OCc5cccc(F)c5)c(Cl)c4)c3c2)o1 [Lapatinib] (partner 2 µM)
A: 0.679

Q: Write down relative viability measured for item Cc1cnc(-c2cnc(NCCNc3ccc(C#N)cn3)nc2-c2ccc(Cl)cc2Cl)[nH]1 + Cc1nc(NC(=O)N2CCC[C@H]2C(N)=O)sc1-c1ccnc(C(C)(C)C(F)(F)F)c1 [Alpelisib] (partner 2 µM)
A: 0.86

Q: Write down relative viability measured for item Cc1cnc(-c2cnc(NCCNc3ccc(C#N)cn3)nc2-c2ccc(Cl)cc2Cl)[nH]1 + CC1(C)CCC(c2ccc(Cl)cc2)=C(CN2CCN(c3ccc(C(=O)NS(=O)(=O)c4ccc(N[C@H](CCN5CCOCC5)CSc5ccccc5)c(S(=O)(=O)C(F)(F)F)c4)cc3)CC2)C1 [Navitoclax] (partner 0.5 µM)
A: 0.809

Q: Write down relative viability measured for item Cc1cnc(-c2cnc(NCCNc3ccc(C#N)cn3)nc2-c2ccc(Cl)cc2Cl)[nH]1 + O=C(CCCCCCC(=O)Nc1ccccc1)NO [Vorinostat] (partner 1 µM)
A: 0.973

Q: Write down relative viability measured for item O=c1[nH]c2ccccc2n1C1CCN(CCCC(c2ccc(F)cc2)c2ccc(F)cc2)CC1 [Pimozide] + CC(C)C[C@H](NC(=O)[C@H](Cc1ccccc1)NC(=O)c1cnccn1)B(O)O [Bortezomib] (partner 0.002 µM)
A: 0.856
